target: hCB2R (Homo sapiens, UniProt P34972); assay: competitive radioligand displacement with [3H]WIN55212-2 on hCB2-CHO membrane preparations; type: binding; design: host or cells: CHO cells, stably transfected; conditions: hCB2-CHO membranes, read-out: Ki(hCB2R)
Sequence (P34972 whole entry): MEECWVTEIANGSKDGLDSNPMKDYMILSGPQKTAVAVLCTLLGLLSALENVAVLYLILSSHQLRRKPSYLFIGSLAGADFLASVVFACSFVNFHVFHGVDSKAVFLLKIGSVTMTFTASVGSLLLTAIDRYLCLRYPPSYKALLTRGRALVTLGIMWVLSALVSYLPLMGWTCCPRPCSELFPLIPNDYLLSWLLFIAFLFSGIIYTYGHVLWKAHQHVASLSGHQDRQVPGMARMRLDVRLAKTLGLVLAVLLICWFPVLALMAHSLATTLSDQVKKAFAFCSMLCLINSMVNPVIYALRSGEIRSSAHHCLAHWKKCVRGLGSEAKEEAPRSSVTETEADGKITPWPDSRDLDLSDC
pKi: −log10 of the molar value.
Quantity: pKi

[[record]]
compound = "C[C@H]1CC[C@H](NC(=O)c2cc3cccnc3n(CCCCF)c2=O)CC1 [trans-5]"
observed = 7.28

[[record]]
compound = "C[C@H]1CC[C@@H](NC(=O)c2cc3cccnc3n(CCCCF)c2=O)CC1 [cis-5]"
observed = 8.22


====

target: hCB2R (Homo sapiens, UniProt P34972)
Quantity: Kd (nM)

[[record]]
compound = "C[C@H]1CC[C@@H](NC(=O)c2cc3cccnc3n(CCCC[18F])c2=O)CC1 [[^18F]LU14]"
unit_info = "nM"
observed = 2.9

